# target.or.system: CIB1 and αIIb interaction (CIB1-GST : F-αIIb peptide) (Homo sapiens, UniProt Q99828)
# Construct: made in house; host or cells: BL-21 plus RIL cells (E. coli)
# procedure.summary: FP assay, 1536-well qHTS format (primary and confirmatory screen)
# Assay type: binding
# experimental.conditions: qHTS primary screen hits, Table S2; negative sign = inhibitory curve; several classes where COUNT > 1
measured.parameter: Curve Class
Number, no unit, nothing else.

Form field Curve Class, entry CC/C(=C(/CC)c1ccc(O)cc1)c1ccc(O)cc1 [NCGC00090749-11] : -2.4

Entry CCCCNC(=S)N/N=C1\C(=O)Nc2ccccc21.O=C(O)C(F)(F)F [NCGC00229539-01] — recorded Curve Class = -1.2

Lab note: COc1ccc(C2CC(=O)Nc3nc(N4CCCCC4)sc32)c(OC)c1.O=C(O)C(F)(F)F (stereo not shown) [NCGC00488246-02] gave Curve Class of -2.3

Documented Curve Class of Cc1ccc(-c2cc(-c3nn(-c4nc(C(=O)O)cs4)c(CC4CC4)c3Cc3ccc(S(N)(=O)=O)c(F)c3)ccc2F)o1 [NCGC00389082-01] : -2.4

The measured Curve Class associated with CCCCCCCc1ccc(CCc2cccc(O)c2C(=O)O)cc1 [NCGC00263121-01] reads -3

Looking up CCCCn1nc(-c2ccccc2)c2nc3ccccc3nc21.O=C(O)C(F)(F)F [NCGC00351644-02] , I see its Curve Class listed as -1.1

Curve Class in this record for Cc1ccc(N[S+](=O)([O-])c2cc3c(cc2N[C@@H](C)CO)NC(=O)CC3)cc1N[C@@H](C)CO [NCGC00189369-01] : -2.4

In plain terms, N#Cc1cnc(NS(=O)(=O)c2ccc(NC(=O)Cc3ccc(F)c(Cl)c3)cc2)s1.O=C(O)C(F)(F)F [NCGC00343826-01] has a documented Curve Class of -1.2

CNC(=S)N/N=C1\C(=O)Nc2ccccc21.O=C(O)C(F)(F)F [NCGC00229528-01] yielded Curve Class of -1.4

So, Cl.Cl.NC(CO)C(=O)NNCc1ccc(O)c(O)c1O (stereo not shown) [NCGC00015163-09] ? Its Curve Class was -2.2

response.value for CN(N=O)c1ccc(O)c(O)c1 [NCGC00015706-04] (field: Curve Class) = -2.4

Lab book: Curve Class of C=C1c2cccc(O)c2C(O)=C2C(=O)[C@]3(O)C(O)=C(C(N)=O)C(=O)[C@@H](N(C)C)[C@@H]3[C@@H](O)[C@H]12.Cl [NCGC00179358-04] noted as -2.4

// recorded Curve Class for CCCCCCCCCCCCCCC[C@H](O)[C@@H](N)CO [NCGC00015362-05] : -2.3

* * *

# target.or.system: CIB1 and αIIb interaction (CIB1-GST : F-αIIb peptide) (Homo sapiens)
# Construct: made in house; host or cells: BL-21 plus RIL cells (E. coli)
# procedure.summary: FP assay, 1536-well qHTS format (primary and confirmatory screen)
# Assay type: binding
# experimental.conditions: qHTS primary screen hits, Table S2; negative = inhibition
Use -40% as the dividing line for Efficacy (%), with the line itself on the MET side and lower values as NOT MET.

Q) Could you verify whether the entry O=C(O)C(F)(F)F.O=C1CC(c2ccccc2F)c2sc(N3CCOCC3)nc2N1 (stereo not drawn) shows Efficacy (%) of no less than -40%?
A) NOT MET

Q) Please tell me: is the molecule "O=C(Nc1ccc(Cl)c(Cl)c1)Nc1nnc(N2CCNCC2)s1.O=C(O)C(F)(F)F" at or over -40% in terms of Efficacy (%)?
A) MET

Q) Hi team, for "Nc1cccc2c(N)cccc12" , is the recorded Efficacy (%) at or above -40%?
A) MET

Q) Quick check, Efficacy (%) >= -40%? "O=S(=O)(O)c1ccc2cc(/N=N/c3cc(S(=O)(=O)O)c4cccnc4c3O)ccc2c1"
A) NOT MET

Q) Please indicate if the recorded Efficacy (%) for "CC(C)(C)OC(=O)CC(=O)NNC(=O)c1nc2ccccc2[nH]1" meets or exceeds -40%.
A) MET

Q) Tell me whether Efficacy (%) is at least -40% here: Nc1nc2c(s1)C(c1ccccc1Cl)CC(O)=N2 (stereo not drawn)
A) MET

Q) Is Efficacy (%) for "Cc1ccc(S(=O)(=O)Nc2cnccc2C(=O)Nc2nc(-c3ccc(Cl)cc3)cs2)cc1.O=C(O)C(F)(F)F" at or above -40%?
A) MET

Q) Check the entry "O=C(Nc1nc(-c2ccccc2)cs1)c1ccncc1NS(=O)(=O)c1cccs1.O=C(O)C(F)(F)F" : does Efficacy (%) equal or exceed -40%?
A) NOT MET

Q) Hello, I need to know if "CNC(=S)N/N=C1\C(=O)Nc2ccccc21.O=C(O)C(F)(F)F" has measured Efficacy (%) not below -40%. Thanks!
A) MET

Q) Say whether "O=C(O)c1cc(O)c2c(c1)C(=O)c1cccc(O)c1C2=O" shows Efficacy (%) of -40% or more.
A) MET

Q) Record "Nc1ccc(CNc2ccc(S(=O)(=O)Nc3nccs3)cc2)c(O)c1.O=C(O)C(F)(F)F" ; criterion: Efficacy (%) no lower than -40%. Met?
A) MET

* * *

# target.or.system: GST-CIB1 : F-scrambled peptide (Homo sapiens, UniProt Q99828)
# Construct: made in house; host or cells: BL-21 plus RIL cells (E. coli)
# Sequence (Q99828 1-191): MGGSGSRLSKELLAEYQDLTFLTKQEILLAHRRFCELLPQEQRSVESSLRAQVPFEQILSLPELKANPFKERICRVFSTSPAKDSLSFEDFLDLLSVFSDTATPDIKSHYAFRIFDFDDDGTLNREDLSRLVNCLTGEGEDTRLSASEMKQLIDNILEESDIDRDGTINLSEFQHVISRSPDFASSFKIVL
# procedure.summary: FP scrambled-peptide counter screen, 1536-well format
# Assay type: binding
# experimental.conditions: Table S3, counterscreen, qHTS curve class; a negative sign marks inhibitory curves
measured.parameter: Curve Class (counterscreen)
Number only, please.

Looking up CCCCCCCCCCCCCCCC[N+](C)(C)CCN(Cc1ccc(OC)cc1)c1ncccn1.[Br-] [NCGC00016507-05] , I found its Curve Class (counterscreen) recorded as 3

Curve Class (counterscreen) measured on O=C(O)C(F)(F)F.O=C(O)c1ccc(-c2ccc3ncnc(N4CCOCC4)c3c2)o1 [NCGC00229619-01] = -2.4

Lab note: O=C(O)C(F)(F)F.O=C1CC(c2ccccc2Cl)c2sc(N3CCOCC3)nc2N1 (stereo not drawn) [NCGC00488256-02] gave Curve Class (counterscreen) of -2.2

* * *

# target.or.system: CIB1 and αIIb interaction (CIB1-GST : F-αIIb peptide) (Homo sapiens, UniProt Q99828)
# Construct: made in house; host or cells: BL-21 plus RIL cells (E. coli)
# procedure.summary: FP assay, 1536-well qHTS format (primary and confirmatory screen)
# Format: binding
# experimental.conditions: qHTS primary screen of LOPAC/NPACT libraries; read-out: IC50
measured.parameter: pIC50
Expect pIC50 as a plain number equal to -log10 of the molar concentration.

# compound "Cn1c(=O)c2[nH]c(-c3ccc(S(=O)(=O)O)cc3)nc2n(C)c1=O" ; its pIC50 = 4.30

Looking up "COc1cc(Nc2ccc([N+](=O)[O-])cc2C(=O)O)cc2ccccc12" , I found its pIC50 recorded as 4.30

Reported pIC50 ( "CC(C)NC[C@@H](O)c1ccc(O)c(O)c1" ) = 4.30

Entry CO/N=C(\C(=O)N[C@@H]1C(=O)N2C(C(=O)O)=C(CSc3nc(=O)c(O)nn3C)CSC12)c1csc(N)n1 (some centres unmarked) — recorded pIC50 = 4.70

Briefly, pIC50 measured for CCOC(=O)C1=C(C)NC(C)=C(C(=O)OC)C1c1cccc(Cl)c1Cl (centres unmarked) : 4.30

* * *

# target.or.system: GST-CIB1 : F-scrambled peptide (Homo sapiens)
# Construct: made in house; host or cells: BL-21 plus RIL cells (E. coli)
# procedure.summary: FP scrambled-peptide counter screen, 384-well format
# Assay type: binding
# experimental.conditions: F-scrambled peptide; *: Curve in opposite direction
measured.parameter: 384-well COUNTERSCREEN Confirm?

Consider the following illustrative entries.
| compound | target.or.system | 384-well COUNTERSCREEN Confirm? |
| --- | --- | --- |
| COc1cc(C(=O)NS(=O)(=O)c2ccccc2C)ccc1Cc1cn(C)c2ccc(NC(=O)OC3CCCC3)cc12 | GST-CIB1 : F-scrambled peptide (Homo sapiens) | YES* |
| CCc1ccc(/C=C2/SC(=S)NC2=O)cc1 | GST-CIB1 : F-scrambled peptide (Homo sapiens) | YES |
| CC(C)(C)c1ccc(SC2=NS(=O)(=O)c3ccccc32)cc1 | GST-CIB1 : F-scrambled peptide (Homo sapiens) | YES |
| COC(=O)[C@]12CCC(C)(C)C[C@H]1[C@H]1C(=O)C=C3[C@@]4(C)C=C(C#N)C(=O)C(C)(C)[C@@H]4CC[C@@]3(C)[C@]1(C)CC2 | GST-CIB1 : F-scrambled peptide (Homo sapiens) | YES |
| Br.CCCCCCCCCCCCCCCC[N+](C)(C)C.[Br-] | GST-CIB1 : F-scrambled peptide (Homo sapiens) | YES |

384-well COUNTERSCREEN Confirm? on GST-CIB1 : F-scrambled peptide (Homo sapiens) for "Cc1ccc(S(=O)(=O)Nc2cnccc2C(=O)Nc2nc(-c3cccc(Cl)c3)cs2)cc1.O=C(O)C(F)(F)F" is YES*

Form field, 384-well COUNTERSCREEN Confirm? with GST-CIB1 : F-scrambled peptide (Homo sapiens), item "O=Cc1c(-c2ccccc2)no[n+]1[O-]" : Inconclusive

So the reported 384-well COUNTERSCREEN Confirm? for "Cc1c(C)n(Cc2ccc(-c3ccccc3C(=O)O)cc2)c2ccc(C(=O)N[C@@H](C)c3ccc([N+](=O)[O-])cc3)cc12" , on GST-CIB1 : F-scrambled peptide (Homo sapiens), turned out to be YES

"Cc1cc(NS(=O)(=O)c2ccc(NCCc3ccc(Cl)c(Cl)c3)cc2)no1.O=C(O)C(F)(F)F" tested on GST-CIB1 : F-scrambled peptide (Homo sapiens) gave 384-well COUNTERSCREEN Confirm?: YES

Record "CC(=O)N1CCN(c2ccc(OCc3nn(C)c(C)c3-c3cccc4c(CCCOc5cccc6ccccc56)c(C(=O)O)n(Cc5cccnc5)c34)cc2)CC1" ; system GST-CIB1 : F-scrambled peptide (Homo sapiens); 384-well COUNTERSCREEN Confirm? = YES

Short answer on GST-CIB1 : F-scrambled peptide (Homo sapiens) for "Nc1c(Cc2ccc(S(N)(=O)=O)cc2)c(-c2cccc(-c3ccccc3)c2)nn1-c1nc(C(=O)O)cs1.O=C(O)C(F)(F)F" , 384-well COUNTERSCREEN Confirm?: Inconclusive

Record for "Cc1cc2c(C(C)C)c(O)c(O)c(C=O)c2c(O)c1-c1c(C)cc2c(C(C)C)c(O)c(O)c(C=O)c2c1O" under target or system GST-CIB1 : F-scrambled peptide (Homo sapiens): 384-well COUNTERSCREEN Confirm? reported as YES

Case "Cc1ccc(S(=O)(=O)Nc2cnccc2C(=O)Nc2nc(-c3ccc(C)c(C)c3)cs2)cc1.O=C(O)C(F)(F)F" , GST-CIB1 : F-scrambled peptide (Homo sapiens), 384-well COUNTERSCREEN Confirm? recorded as YES*

Kindly note: GST-CIB1 : F-scrambled peptide (Homo sapiens), CC(O)c1ccc(-c2ccc3ncnc(NCc4nccs4)c3c2)o1.O=C(O)C(F)(F)F (centres unmarked) , 384-well COUNTERSCREEN Confirm? value reported: YES
